These data points were gathered from ChEMBL document CHEMBL1201862.

System: M14
Experiment: NCI tumour cell line growth inhibition, 48 h
Active and inactive are the calls of the source. No stated cut-off is given here; in the data, active = GI50 up to about 1.1 µM and inactive = higher.
Exercise: for every item that follows, state its recorded GI50.

Query (compound): Oc1ccc(-c2ccccc2)nn1 ; field requested: GI50 > 100 µM (inactive)

Query (compound): COc1cc(OC)c2c(=O)cc(-c3ccccc3F)[nH]c2c1 ; field requested: GI50 39.1 µM (inactive)

Query (compound): CS/C(=N\c1ccc([N+](=O)[O-])cc1C#N)NC(=O)c1ccccc1 ; field requested: GI50 > 100 µM (inactive)

Query (compound): CN(C)c1ccc(-c2nc(-c3cc4c(ccc5ccccc54)oc3=O)cs2)cc1 ; field requested: GI50 > 100 µM (inactive)

Query (compound): Cc1nc(N)nc(N)c1CCCc1ccccc1 ; field requested: GI50 4.78 µM (inactive)

Query (compound): COC(=O)[C@H](COC(C)(C)C)NC(=O)N[C@H](C)c1ccccc1 ; field requested: GI50 > 100 µM (inactive)

Query (compound): C=C(C)[C@@H]1CC[C@]2(C(=O)O)CC[C@]3(C)[C@H](CC[C@@H]4[C@@]5(C)CC(=O)C(C)(C)[C@@H]5CC[C@]43C)[C@@H]12 ; field requested: GI50 8.65 µM (inactive)

Query (compound): CSc1ccc(/C=C2\CN(C)C/C(=C\c3ccc(SC)cc3)C2=O)cc1 ; field requested: GI50 92.3 µM (inactive)

Query (compound): Cc1ccc(C(=O)c2[nH]c(NCc3ccccc3)c(C(=S)Nc3ccccc3)c2N)cc1 ; field requested: GI50 1.95 µM (inactive)
